- Tested on: MS2 coat protein
- METHOD_SUMMARY: apparent KD of MS2 coat protein; designed switch direction (-1 OFF switch, 1 ON switch): -1; higher = weaker reporter binding
- SETTINGS: input ligand: none
QUANTITY_MEASURED: apparent KD of MS2 coat protein (nM)
Express the result in nM but write the number alone.

State, in one line, measured apparent KD of MS2 coat protein of ACAUGUCAUUGAGGAUAUCGCACACAUGAGGAUCACCCAUGUAAACGGAUGCUCAUUAGUGGGUUCGAGAAGGCGAUGUACAUU [Ex NG2 #99] (Eterna round: R96, puzzle: Exclusion NG 2) 68.5

State, in one line, measured apparent KD of MS2 coat protein of ACUUACUGAGGAUAUACAUAGAUUUACAUGAGGAUCACCCAUGUUCCUCUAUGUAUAUAUGUAGAAGGCAGAAGAU [Mat - Exclusion 5 - JL Mod - D34] (Eterna round: R97, puzzle: Exclusion 5) 18.9

State, in one line, measured apparent KD of MS2 coat protein of AUAAUGUGAGGAUAUCAGUCGACUAGCUGCGGCUAGUCGACUGAGAAGGUACAUGAGGAUCACCCAUGUAGAUC [E4/20-A3] (Eterna round: R97, puzzle: Exclusion 4) 29.4

State, in one line, measured apparent KD of MS2 coat protein of GUGAGGGAGUGAGGAUAUCAGGGAGAUAAGAAAUGAGAAGGUACAUGAGGAUCACCCAUGUAAGAGUAGGGAAGAGAGAAGAGU [Default title] (Eterna round: R96, puzzle: Exclusion NG 1) 66.7

State, in one line, measured apparent KD of MS2 coat protein of UUAUUACAAGCAAGAUCCCACAUGAGGAUCACCCAUGUGCUCGUCUUAUAAGGUACAGUGACGAAAGUCACAGUACC [Sensor 3, v1 - 0] (Eterna round: R96, puzzle: Sensor v3, turn-off variant 1) 25.9

State, in one line, measured apparent KD of MS2 coat protein of GAUCACUGAGGAUAUACACAGAUACAAAGUAUCUGAUUGUGACAUGAGGAUCACCCAUGUAGAAGGCAGAGGUC [Omei Ex2 B6] (Eterna round: R97, puzzle: Exclusion 2) 31.1

State, in one line, measured apparent KD of MS2 coat protein of GGCUUGUAAGGAUAUGCGAAGGGAAGGAGAGGGACAGAGAAGCAGAAGGUACAUGAGGAUCACCCAUGUAAGGG [AK-MS2ROC-r4-exclusion4-7] (Eterna round: R97, puzzle: Exclusion 4) 94.9

State, in one line, measured apparent KD of MS2 coat protein of GCUGGUCGAGGAUAUACAUUCGUGCUUCGGCACGUAAGAUCACAUGAGGAUCACCCAUGUAGAAGGCGACCAGC [E2/5-A1] (Eterna round: R97, puzzle: Exclusion 2) 112

State, in one line, measured apparent KD of MS2 coat protein of GAUCAUGCAGGAUAUACAUUAACCAUGAAAACAUGGAUCAAACAUGAGGAUCACCCAUGUAGAAGGGCAUGAUC [Omei Ex2 A21] (Eterna round: R97, puzzle: Exclusion 2) 25.9

State, in one line, measured apparent KD of MS2 coat protein of GACUUCUCUGAGGAUAUUGCAUCAUACGAUAAAUAAGAAGGCAGAACAUGAGGAUCACCCAUGUGGGUUUCAAG [Bingo-Bango-34] (Eterna round: R97, puzzle: Exclusion 6) 81.4

---

- System: K4 kissing-loop RNA reporter;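 also: bound reporter read as fluorescence of individual clusters on recovered sequencing chips by microscopy, with normalized cluster intensities fitted with a binding model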
- METHOD_SUMMARY: apparent KD of K4 kissing-loop reporter; higher = weaker reporter binding
- SETTINGS: Eterna round: R107; input ligand: FMN 200 uM
Task for the reader: assign each of the following sequences its reported apparent KD of K4 kissing-loop reporter.

State, in one line, measured apparent KD of K4 kissing-loop reporter of GGGUCAGUCUGAAGGAGCGGCCAGACAGAGCAGUGAUGUUGCUCCUAAUUUAAAAGUGUCGGCCAGGUAGGUCGCAGAUUGGCUC [Dienralais] 154 nM

State, in one line, measured apparent KD of K4 kissing-loop reporter of UUUAAACAUAGUGAUGUUAUGUAACAAUGACGAGGACCGGUACGGCCGCCACUCGAGAGAGAUGAUGGUAAAAUAAAUAAUUUUC [#10 K4 Tryptophan A Same State] 105 nM

State, in one line, measured apparent KD of K4 kissing-loop reporter of UGUCAUUGGUCGGCCGCCACUUCAUAGAGAGUGAUGUUCUUAAAGACGGAUCGAAAGAUCUGUCGAAGGACCGGGACCGAUGACU [FiskerMod 9 - Jieux - Same State - Tryptophan B] 997 nM

State, in one line, measured apparent KD of K4 kissing-loop reporter of UUGUUUUACUGAAGGAGCGGCAAUUGAUACGUAGAUAUAGUGAUGUUAUAUAAGAUAGAGAGCCAGGUAGGUCGCAGAUUUGUUU [ExArgB.U] 221 nM

State, in one line, measured apparent KD of K4 kissing-loop reporter of GGGAGUAGUGCGGCCGCCACUGAGAAAGAAGAAGAAUAUAGUGAUGUUAUAUAGGAAGGGAAGAACAGGACCGGGCAUUAGAUUU [SSTRyptB.Y] 240 nM

State, in one line, measured apparent KD of K4 kissing-loop reporter of AGGAUCCGUCGACAAAAGUCGACAUAAACCAAGGAUAUGACGAAAGUCAGAAGGUGGUCAUAAGGCCAGUGAUGUUGGUGGAUCC [FmnA 12 #SwitchBubble #K4Late] 927 nM

---

Task for the reader: assign each of the following sequences its reported apparent KD of MS2 coat protein.
- Test system: MS2 coat protein
- METHOD_SUMMARY: apparent KD of MS2 coat protein; designed switch direction (-1 OFF switch, 1 ON switch): -1; higher = weaker reporter binding
- SETTINGS: input ligand: FMN 200 uM
Express the result in nM but write the number alone.

State, in one line, measured apparent KD of MS2 coat protein of CUUUUGUGAGGAUAUGGUAACGUUUACAUGAGGAUCACCCAUGUUUCAUGGGACUUGAGACUAGAAGGCACUAACG [JR_Ex5_Sub027] (Eterna round: R97, puzzle: Exclusion 5) 516

State, in one line, measured apparent KD of MS2 coat protein of CUAGUAUAUCAGGAUAUGAUAUUGUGUAGUAAAUCAGAAGGGAUGACAUGAGGAUCACCCAUGUUAAGGGAUGA [JR_Ex6_Sub047] (Eterna round: R97, puzzle: Exclusion 6) 41.4

State, in one line, measured apparent KD of MS2 coat protein of AACCUGAGGCUUUGCUUUAGGUGUACAUGAGGAUCACCCAUGUAGGAUAUGGUAGGCAAAGCUUACCAGAAGGACAUUUAGGUU [Mat - Exclusion NG 3 - Mod of JL - D43] (Eterna round: R96, puzzle: Exclusion NG 3) 72.8

State, in one line, measured apparent KD of MS2 coat protein of AAAGGAUGCCUAGGAUAUUGACUAAGAAAGGAUUAAGAAGGAGGAAAUAUAUGAGGGAUCCACAUGAGGAUCACCCAUGUACAC [Xesousbege] (Eterna round: R96, puzzle: Exclusion NG 1) 769

State, in one line, measured apparent KD of MS2 coat protein of AGAUCACAUGAGGAUCACCCAUGUCAGGAUAUCGACUGAUCAGCUUCGGCUGAUCAGUCGAGAAGGGACAAUUA [E1/1-A2] (Eterna round: R97, puzzle: Exclusion 1) 511

State, in one line, measured apparent KD of MS2 coat protein of GUAAACGUAUAGGAUAUUUCAGGUCAAAGCUGCAAAGAAGGAUACACAUGAGGAUCACCCAUGUGGUCAAUAAA [Mod of Quesina 23 - Jieux - Exclusion 6] (Eterna round: R97, puzzle: Exclusion 6) 42.2

State, in one line, measured apparent KD of MS2 coat protein of AAUAAUGAUAAGGAUAUCACUAGCUGCGGCUAGUGAGAAGGUAUCACAUGAGGAUCACCCAUGUGUUCCAAUAA [Ex6/6-A3] (Eterna round: R97, puzzle: Exclusion 6) 33.1

State, in one line, measured apparent KD of MS2 coat protein of CCUCUGUGAGGAUAUUGGCAACACUGCACCCAAUAAAGCGCCGAGAAGGCACAUGAGGAUCACCCAUGUACGCA [Eternabot (L1) Solution 66] (Eterna round: R97, puzzle: Exclusion 4) 22.4

State, in one line, measured apparent KD of MS2 coat protein of AUCAGCUCGUGAGGAUAUAUAUAUACAUGAGGAUCACCCAUGUUAGAUCAGCUUCGGCAGUAUAUAUAGAAGGCACGAGCUGAU [ENG2/15-A2] (Eterna round: R96, puzzle: Exclusion NG 2) 233

State, in one line, measured apparent KD of MS2 coat protein of UUUACAAGCUAUAGAUCCCACAUGAGGAUCACCCAUGUUCCUGGCCGUGAGGCUAGGUAAACUAUUGCUCGUCUUAU [JL TOV1 3.66] (Eterna round: R97, puzzle: Sensor, turn-off variant 1) 252
